Readings of IC50 for the listed compounds
# test.system: CDK2/cyclin A2 (Homo sapiens, UniProt P24941)
# Construct: purchased Carna Biosciences, Inc. QS S Assist CDK2/Cyclin A2_FP Kit
# method: Human CDK2/cyclin A2 inhibitory activity (QS S Assist CDK2/Cyclin A2_FP Kit, IMAP fluorescence polarization)
# Assay type: biochemical
# experimental.context: 50% inhibitory concentration against CDK2/cyclin A2, given as class symbol

compound | IC50
CC(C)Nc1nc([C@@H](C)O)cc2cnc(Nc3ccc(C(=O)N4CCNC[C@@H]4C)cn3)nc12 | ≥ 100 nM
CCCNc1nc(C2CCCO2)cc2cnc(Nc3ccc(N4CCNCC4)cn3)nc12 (single isomer, unassigned) [Compound 1025] | ≥ 100 nM
CC(C)Nc1nc([C@@H](C)O)cc2cnc(Nc3ccc(N4CCN(CC(C)(C)O)CCC4=O)cn3)nc12 | ≥ 100 nM
CO[C@H](C)c1cc2cnc(Nc3ccc(N4CCN(C(=O)C5CCOC5)CC4)nn3)nc2c(NC(C)C)n1 (stereo partly shown) | ≥ 100 nM
